Target: T1, human tissue factor pathway inhibitor (TFPI) (human, UniProt P10646 29-304, limits assumed)
T1 construct: bought; also called hTFPI; human TFPI
T1 sequence (looked up): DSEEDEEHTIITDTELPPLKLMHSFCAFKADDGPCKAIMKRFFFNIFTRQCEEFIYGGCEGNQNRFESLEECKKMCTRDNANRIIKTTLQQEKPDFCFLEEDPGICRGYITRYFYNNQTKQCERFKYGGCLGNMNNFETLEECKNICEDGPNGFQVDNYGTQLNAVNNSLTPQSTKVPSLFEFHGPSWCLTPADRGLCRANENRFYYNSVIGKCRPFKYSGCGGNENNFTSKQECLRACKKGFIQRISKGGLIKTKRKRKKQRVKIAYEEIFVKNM
Test: SPR, TFPI immobilized
Below, each entry is listed with its recorded koff.
# number then unit; no other words

Query: Let me know recorded koff for 2A8 LC_D91W (Fab, V domains shown, also called 2A8-17) VH: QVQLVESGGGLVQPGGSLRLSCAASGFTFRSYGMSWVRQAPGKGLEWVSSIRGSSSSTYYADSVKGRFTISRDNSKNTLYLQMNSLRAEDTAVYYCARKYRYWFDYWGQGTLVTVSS VL: DIELTQPPSVSVAPGQTARISCSGDNLRNYYAHWYQQKPGQAPVVVIYYDNNRPSGIPERFSGSNSGNTATLTISGTQAEDEADYYCQSWWDGVPVFGGGTKLTVLG , thanks.
Reply: 0.00432 s⁻¹

Query: Return koff for the following binder: 2A8 LC_D91K (Fab, V domains shown, also called 2A8-15) VH: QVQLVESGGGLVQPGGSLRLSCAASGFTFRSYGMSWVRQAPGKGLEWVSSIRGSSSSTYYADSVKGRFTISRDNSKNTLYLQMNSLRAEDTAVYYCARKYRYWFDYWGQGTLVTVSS VL: DIELTQPPSVSVAPGQTARISCSGDNLRNYYAHWYQQKPGQAPVVVIYYDNNRPSGIPERFSGSNSGNTATLTISGTQAEDEADYYCQSWKDGVPVFGGGTKLTVLG
Reply: 0.00209 s⁻¹
